Data provenance is patent US20140220040A1.

systemTested: T1, Human LRP6-Fc (R&D Systems), recombinant human LRP6 containing the complete extracellular domain (human, UniProt O75581 20-1370)
T1 construct: Bought protein; also called hLRP6; Fc-antigen; not shown: Fc part of the bought fusion protein
T1 sequence: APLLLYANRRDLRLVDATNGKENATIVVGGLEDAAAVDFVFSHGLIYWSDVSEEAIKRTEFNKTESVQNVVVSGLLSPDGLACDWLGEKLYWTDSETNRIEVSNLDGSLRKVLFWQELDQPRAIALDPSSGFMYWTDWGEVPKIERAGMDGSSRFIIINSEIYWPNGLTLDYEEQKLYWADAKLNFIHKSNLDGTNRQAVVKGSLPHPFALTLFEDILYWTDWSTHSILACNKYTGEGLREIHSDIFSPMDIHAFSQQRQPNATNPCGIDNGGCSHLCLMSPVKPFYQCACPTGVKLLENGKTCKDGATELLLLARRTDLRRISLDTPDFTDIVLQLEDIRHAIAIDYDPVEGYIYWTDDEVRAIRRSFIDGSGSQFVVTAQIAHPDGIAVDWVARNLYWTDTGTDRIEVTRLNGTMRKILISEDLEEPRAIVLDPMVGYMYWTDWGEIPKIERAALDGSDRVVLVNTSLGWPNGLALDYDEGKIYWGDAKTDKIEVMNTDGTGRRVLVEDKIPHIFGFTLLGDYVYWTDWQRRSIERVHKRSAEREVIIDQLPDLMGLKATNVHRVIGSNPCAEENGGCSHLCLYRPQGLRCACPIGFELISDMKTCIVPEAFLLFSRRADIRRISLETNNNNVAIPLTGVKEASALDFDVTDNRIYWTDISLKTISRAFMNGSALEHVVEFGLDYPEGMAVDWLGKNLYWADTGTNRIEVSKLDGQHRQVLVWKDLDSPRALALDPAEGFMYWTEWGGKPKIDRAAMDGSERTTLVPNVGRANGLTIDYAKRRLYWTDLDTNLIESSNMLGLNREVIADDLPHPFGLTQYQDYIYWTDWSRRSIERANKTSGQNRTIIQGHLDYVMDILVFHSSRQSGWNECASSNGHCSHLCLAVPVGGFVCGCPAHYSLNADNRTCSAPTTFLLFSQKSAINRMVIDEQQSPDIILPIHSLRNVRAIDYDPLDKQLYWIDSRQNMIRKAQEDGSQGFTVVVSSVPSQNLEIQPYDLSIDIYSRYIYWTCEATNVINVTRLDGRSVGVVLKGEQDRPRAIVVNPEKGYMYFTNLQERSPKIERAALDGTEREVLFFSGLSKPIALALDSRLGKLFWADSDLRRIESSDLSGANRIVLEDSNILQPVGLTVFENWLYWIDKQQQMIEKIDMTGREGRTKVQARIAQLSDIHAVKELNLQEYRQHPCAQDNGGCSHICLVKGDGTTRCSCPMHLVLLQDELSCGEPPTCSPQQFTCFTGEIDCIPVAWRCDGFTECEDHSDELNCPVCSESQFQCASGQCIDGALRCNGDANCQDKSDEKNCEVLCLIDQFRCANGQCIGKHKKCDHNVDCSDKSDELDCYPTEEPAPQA
runDescription: SPR (BIAcore), mAb captured on anti-mouse chip, Fc-antigen injected, 1:1 model
Below, each of the binders is paired with its reported kon value.

>  <binder>
anti-LRP6 monoclonal antibody 213.7 (antibody, V domains shown, Murine hybridoma mAb, protein G purified; also called VH3/VL3) VH: DVKLVESGGGLVKVGGSLKLSCAASGFTFSSYYMSWVRQTPEKRLELVAVINTNGGSTYYSDTVKGRFTISRDNAKNTLYLQMSSLKSEDTALYYCSRQPYYGNPFDYWGQGTTLTVSS VL: DIVLTQSPATLSVTPGDSVSLSCRASQSISNNLHWYQQKSHESPRLLIKYVSQSISGIPSRFSGSGSGTDFTLSINSVETEDFGMYFCQQSNNWPLTFGAGTKLEL

>  <kon>
55600 M⁻¹ s⁻¹

$$$$
>  <binder>
anti-LRP6 monoclonal antibody 1903.1 (antibody, V domains shown, Murine hybridoma mAb, protein G purified; also called VH23/VL23) VH: DVNLVESGGGLVKLGGSLKLSCAASGFTFSRFYMSWVRQTPEKRLDLVAAINTNGGSTYYSDTVKGRFTISRDNAKNTLYLQMSSLKSEDTALFYCARQPYYGGPMEFWGQGTSVTVSS VL: DIVMTQSQKFMSTSVGDRVSVTCKASQNVGTNVAWYQQKPGQSPKALIYSASYRYSGVPDRFTGSGSGSDFTLTISNVQSEDLAEYFCQQYNSYPLTFGAGTKLEL

>  <kon>
33700 M⁻¹ s⁻¹

$$$$
